assay: Thermal stability of cysteine-NEM conjugates by DSC; format: physicochemical; conditions: DSC 25-100 °C, 1 °C per minute
Give measured First Scan Tm for each item. Keep answers brief.
Please reply with the bare figure in °C and do not write the unit itself.

Lookup: What First Scan Tm value was documented for this molecule, T13C (conjugate, left off: small tags and cut ends) LPAPKNLVVSEVCEDSARLSWDDPWAFYESFLIQYQESEKVGEAIVLTVPGSERSYDLTGLKPGTEYTVSIYGVHNVYKDTNMRGLPLSAIFTT ?
Found: 63

Lookup: What First Scan Tm value was documented for this molecule, G51C (conjugate, left off: small tags and cut ends) LPAPKNLVVSEVTEDSARLSWDDPWAFYESFLIQYQESEKVGEAIVLTVPCSERSYDLTGLKPGTEYTVSIYGVHNVYKDTNMRGLPLSAIFTT ?
Found: 61

Lookup: What First Scan Tm value was documented for this molecule, P50C (conjugate, left off: small tags and cut ends) LPAPKNLVVSEVTEDSARLSWDDPWAFYESFLIQYQESEKVGEAIVLTVCGSERSYDLTGLKPGTEYTVSIYGVHNVYKDTNMRGLPLSAIFTT ?
Found: 63

Lookup: What First Scan Tm value was documented for this molecule, V9C (conjugate, left off: small tags and cut ends) LPAPKNLVCSEVTEDSARLSWDDPWAFYESFLIQYQESEKVGEAIVLTVPGSERSYDLTGLKPGTEYTVSIYGVHNVYKDTNMRGLPLSAIFTT ?
Found: 46

Lookup: What First Scan Tm value was documented for this molecule, E14C: cysteine variant of P54AR4-83v2 (SEQ ID NOS: 192 and 230); NEM and VC-MMAF conjugates (conjugate, NEM or vcMMAF conjugate; EGFR binding FN3 domain, NEM and VC-MMAF conjugates) MLPAPKNLVVSEVTCDSARLSWDDPWAFYESFLIQYQESEKVGEAIVLTVPGSERSYDLTGLKPGTEYTVSIYGVHNVYKDTNMRGLPLSAIFTT ?
Found: 70

Lookup: What First Scan Tm value was documented for this molecule, G64C: cysteine variant of P54AR4-83v2 (SEQ ID NOS: 209 and 247); NEM and VC-MMAF conjugates (conjugate, NEM or vcMMAF conjugate; EGFR binding FN3 domain, NEM and VC-MMAF conjugates) MLPAPKNLVVSEVTEDSARLSWDDPWAFYESFLIQYQESEKVGEAIVLTVPGSERSYDLTGLKPCTEYTVSIYGVHNVYKDTNMRGLPLSAIFTT ?
Found: 70
